All values here come from PubChem BioAssay AID1845203.

# System: G-401 tumor spheroids, viability % test/control
# assayNotes: Anticancer human tumor G-401 cell line growth inhibition; active = viability on the fitted dose curve at most 10% of control; inactive = the rest;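 note: spheroids exposed to compound for 7 days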
# conditionSummary: second compound 0.000949 µM; first compound 3 µM; spheroids with HUVEC and MSC
Mark one answer only. Choices: active, inactive

Problem: Write down the call the test reported for this compound. Item: O=C(c1cc(Cc2n[nH]c(=O)c3ccccc23)ccc1F)N1CCN(C(=O)C2CC2)CC1 + COc1cc2c(cc1O)CCNC21CSC2c3c(OC(C)=O)c(C)c4c(c3C(COC1=O)N1C(O)C3Cc5cc(C)c(OC)c(O)c5C(C21)N3C)OCO4
Result: active

Problem: Write down the call the test reported for this compound. Item: Cn1ncnc1[C@H]1c2n[nH]c(=O)c3cc(F)cc(c23)N[C@@H]1c1ccc(F)cc1 + COc1cc2c(cc1O)CCNC21CSC2c3c(OC(C)=O)c(C)c4c(c3C(COC1=O)N1C(O)C3Cc5cc(C)c(OC)c(O)c5C(C21)N3C)OCO4
Result: active

Problem: Write down the call the test reported for this compound. Item: CNCc1ccc(-c2cc(-c3nc(-c4ccc(S(=O)(=O)C(C)C)cc4)cnc3N)on2)cc1 + COc1cc2c(cc1O)CCNC21CSC2c3c(OC(C)=O)c(C)c4c(c3C(COC1=O)N1C(O)C3Cc5cc(C)c(OC)c(O)c5C(C21)N3C)OCO4
Result: inactive

Problem: Write down the call the test reported for this compound. Item: Cc1sc2c(c1C)C(c1ccc(Cl)cc1)=NC(CC(=O)Nc1ccc(O)cc1)c1nnc(C)n1-2 (centres undefined) + COc1cc2c(cc1O)CCNC21CSC2c3c(OC(C)=O)c(C)c4c(c3C(COC1=O)N1C(O)C3Cc5cc(C)c(OC)c(O)c5C(C21)N3C)OCO4
Result: active
